protocol: First-in-human single-ascending-dose study: plasma pharmacokinetics
Type: in vivo
cond: human, plasma, po, 80 mg, single oral 80 mg fasted, powder-in-bottle, n = 6, geometric mean (CV %)
recordedEndpoint: AUC(0-inf) (ng·h/mL)
Numbers only; they are read as ng·h/mL.

Look up AUC(0-inf): CS(=O)(=O)c1ccc(-c2cnc(N)c(-c3ccc(C(F)(F)F)nc3)c2)cc1 [MMV390048] 62000

====

protocol: First-in-human single-ascending-dose study: plasma pharmacokinetics
Type: in vivo
cond: human, plasma, po, 40 mg, single oral 40 mg fasted, powder-in-bottle, n = 6, geometric mean (CV %), read-out: t1/2 (converted)
recordedEndpoint: half-life (h)
Report only the number, with the unit h understood.

Which half-life reading was recorded for the compound CS(=O)(=O)c1ccc(-c2cnc(N)c(-c3ccc(C(F)(F)F)nc3)c2)cc1 [MMV390048] ? 190
